Kindly state cell viability for each of the entries shown.
Tested on: NOMO1
Experiment Notes: cell viability relative to DMSO control; higher = less cytotoxic
Test Conditions: RPMI 5 mM glucose + 10% FBS; 48 h; 0.000781 µM

Would you mind giving cell viability for every compound in the list below?
1. CC1(N2CCC(n3c([C@@H]4CCCNC4)nc4ccccc43)CC2)CCCCCCC1
2. Cn1c(=O)n(-c2ccc(C(C)(C)C#N)cc2)c2c3cc(-c4cnc5ccccc5c4)ccc3ncc21
3. CN(C)CCN(C)C(=O)c1ccc(NC(=O)Nc2ccc(-c3nc(N4CCOCC4)c4ccn(CC(F)(F)F)c4n3)cc2)cc1
4. CN1\N=C(N)/C2=C[N]([C@@H]3O[C@H](CO[P](O)(O)=O)[C@@H](O)[C@H]3O)C4=C2C1=NC=N4

-- reply
["93.6%", "103%", "101%", "109%"]

Give one value of cell viability per listed compound.
1. C[C@@H](NC(=O)c1ncnc(N)c1Cl)c1ncc(C(=O)Nc2cc(C(F)(F)F)c(Cl)cn2)s1
2. Oc1cccc(-c2nc(N3CCOCC3)c3oc4ncccc4c3n2)c1
3. C[C@H]1[C@@H](C(=O)C[C@H]2O[C@@H]3O[C@]4(C)CC[C@H]5[C@H](C)CC[C@@H]([C@H]2C)[C@@]35OO4)O[C@@H]2O[C@]3(C)CC[C@H]4[C@H](C)CC[C@@H]1[C@@]24OO3

-- reply
99.4%
109%
103%

* * *

Tested on: P12-Ichikawa
Experiment Notes: cell viability relative to DMSO control; higher = less cytotoxic
Test Conditions: RPMI 5 mM glucose + 10% FBS; 48 h; 1.71 µM
Could you please report measured cell viability for the items listed next?
One number for each entry, in %.

The examples below pair each entry with its known result.
{"Compound": "Cc1cc(C(=O)N2CCN(c3cccc(Cl)c3)CC2)n(-c2ccccc2)n1", "Assay System": "P12-Ichikawa", "Readout Label": "cell viability", "Observed Result": 80.5}
{"Compound": "CCC(=O)N[C@H]1CC[C@H](C(=O)N(C)c2ccc(-c3nc4ccccc4o3)cc2)C1", "Assay System": "P12-Ichikawa", "Readout Label": "cell viability", "Observed Result": 95.6}

Provide each entry's cell viability from the list below.
1. CN1CCCC(CC1)N2\N=C(CC3=CC=C(Cl)C=C3)/C4=C(C=CC=C4)C2=O (centres undefined)
2. COc1ncnc(N[S+](=O)([O-])c2ccc(N)cc2)c1OC
3. COC[C@H](c1ccc(C(F)(F)F)cc1)N1CCN(C2(C)CCN(C(=O)c3c(C)ncnc3C)CC2)C[C@H]1C.O=C(O)/C=C\C(=O)O

-- reply
1. 121
2. 59.3
3. 104

The following compounds each have a reported value; give each one's cell viability.
1. COc1ccc(Nc2nccc(NCCO)n2)cc1
2. COc1cccc([C@@H](C)NCCCc2ccccc2Cl)c1
3. COc1cc2c(Nc3ccc(Br)cc3F)ncnc2cc1OCC1CCN(C)CC1
4. COc1ccc2[nH]c([S+]([O-])Cc3ncc(C)c(OC)c3C)nc2c1 (centres undefined)
5. Cc1ccc([S+](=O)([O-])Nc2nc3ccccc3nc2Nc2ccc3nsnc3c2)cc1

-- reply
1. 73.6
2. 92.8
3. 84.8
4. 91.9
5. 103

Quick batch: cell viability for everything below.
1. Nc1cccc2c1CN([C@H]1CCC(=O)NC1=O)C2=O
2. Cc1csc(NC(=O)c2sc3nc4c(c(C(F)(F)F)c3c2N)CCC4)n1
3. Cc1[nH]c(/C=C2\C(=O)Nc3ccccc32)c(C)c1CCC(=O)O
4. ClC1=CC\2=C(NC(=O)\C(=C2N[C@@H]3CN4CCC3CC4)C5=NC6=C([NH]5)C=CC=C6)C=C1
5. CN(C)CCOc1ccc(-c2nc(-c3ccncc3)c(-c3ccc4c(c3)CC/C4=N\O)[nH]2)cc1
6. CC[C@H](C)C(=O)O[C@H]1C[C@H](O)\C=C2\C=C/[C@H](C)[C@H](CC[C@@H](O)C[C@@H](O)CC(O)=O)[C@@H]12
7. NC(=O)C1CCCc2c1[nH]c1ccc(Cl)cc21 (centres undefined)
8. O=C(Nc1ncc(SCCN2CCCC2)s1)[C@]1(c2ccc([S+](=O)([O-])C3CC3)cc2)C[C@H]1C1CCCCC1

-- reply
[99.6, 90.1, 106, 13.1, 103, 104, 109, 112]

-- ask What reported cell viability corresponds to "O=C\1N(N\C=C1[N]2C=CN=N2)C3=NC=NC(=C3)N4CCOCC4" on P12-Ichikawa?
-- reply 30.9
